subject-of-test: T1, his-tagged human PVRIG (h-PVRIG-his) recombinant protein (human, UniProt Q6DKI7 41-171, limits assumed)
T1 construct: bought from Acrobiosystems; also called Human PVRIG-his; human PVRIG recombinant protein; not shown: his tag
T1 sequence (looked up): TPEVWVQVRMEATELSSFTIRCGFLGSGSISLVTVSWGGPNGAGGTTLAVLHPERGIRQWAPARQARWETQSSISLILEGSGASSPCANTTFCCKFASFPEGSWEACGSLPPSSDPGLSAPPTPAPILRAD
protocol-details: BLI (Fortebio), antibody on Protein A sensor, 1:1 fit
Recorded measurements of Kd, one per entry
Reply with just the number (in nM).

Below, each entry is followed by its recorded Kd result.
# binder, Kd / nM
rows = [
    ("humanized anti-PVRIG antibody 39H4 (antibody, human IgG4 S228P, F234A L235A, V domains shown) VH: EVQLVESGGGLVQPGGSLRLSCAASGYTSRTDCMGWFRQAPGKGLEGVAHIDSDGIPRYVESVKGRFTISQDHAKNSLYLQMNSLRAEDTAVYYCVVGFKFGDYCAPNDWGQGTMVTVSS", 0.482),
    ("humanized anti-PVRIG antibody 30H3 (antibody, human IgG4 S228P, F234A L235A, V domains shown) VH: EVQLVESGGGLVQPGGSLRLSCAASGYSYSGDCMGWFRQAPGKGLDEGVATIDNAGRIKYADSVKGRFTISRDNAKNSLYLQMNSLRAEDTAVYYCAAGWTFGGQCSPADWGQGTQVTVSS", 2.41),
]

# input for lookup
The binder listed as humanized anti-PVRIG antibody 30H2 (antibody, human IgG4 S228P, F234A L235A, V domains shown) VH: EVQLVESGGGLVQPGGSLRLSCAASGFTFSGDCMGWFRQAPGKGLDEGVATIDNAGRIKYADSVKGRFTISRDNAKNSLYLQMNSLRAEDTAVYYCAAGWTFGGQCSPADWGQGTQVTVSS shows Kd equal to 1.92
